System: TRPC4 beta (transient receptor potential cation channel C4), mouse
experiment: TRPC4 cation channel opening, retest – cell-based, Fluo4 calcium, HEK293 TRPC4beta/mu-opioid, duplicates, 10 µM, confirmation (AID 2426)
test conditions: Fluo4 calcium fluorescence, at 10 µM
Activity calls are given as the source filed them.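 How the source made its calls: active means fluorescence ratio normalized to control raised more than 50% in primary screen plus both repeat runs; inactive means the rest.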
Thanks in advance; please answer with one of these: active, inactive

Example entries and their recorded answers appear below.
[[record]]
molecule = "CC(C)C(NC(=O)c1ccc(C(C)(C)C)cc1)C(=O)NCC(c1ccccc1)N(C)C (stereo not given)"
classification = "inactive"

[[record]]
molecule = "CC1=NN(c2ccccc2)C(=O)/C1=C/c1c(O)n(-c2ccc(F)c(Cl)c2)[nH]c1=O"
classification = "inactive"

[[record]]
molecule = "O=C(NC1CC1)C1=C[C@H](c2csc3ccccc23)C[C@H](OCc2ccc(CO)cc2)O1"
classification = "inactive"

[[record]]
molecule = "Cc1cccc(-n2nc(C)c3c(C(=O)O)cc(-c4cccs4)nc32)c1"
classification = "inactive"


Field: next molecule
For CN(C)c1ccc(/C=C/C(=O)c2c(O)c3ccccc3oc2=O)cc1 , what call appears in the results of this test?
active

* * *

Tested on: TRPC4 (transient receptor potential cation channel C4 beta), mouse
experiment: potentiation of DAMGO EC20 TRPC4 response – cell-based, second round, Fluo-4, HEK293 TRPC4beta/mu-opioid, 1 µM, confirmation (AID 2554)
test conditions: DAMGO EC20, Fluo-4 calcium flux, at 1 µM
Calls of active or inactive are those of the source.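 Rule for the calls: active = primary screen hit whose fluorescence ratio, in both repeats, exceeds the weak agonist control mean by 3 SD; inactive = the rest.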
Please answer using one outcome listed in yes for active, no for inactive

Study these solved cases before continuing.
[[record]]
molecule = "O=C(C1CCN(S(=O)(=O)c2cccnc2)CC1)N1CCN(c2ccc(Cl)cc2)CC1"
classification = "no"

[[record]]
molecule = "CCOc1ccc(-n2c(C)cc(/C=C3/C(=N)N4C(=NC3=O)SN=C4S(C)(=O)=O)c2C)cc1"
classification = "no"

[[record]]
molecule = "COc1ccc(CNCC(O)(c2ccccc2)c2ccccc2)cc1OC"
classification = "no"


Tell me the recorded outcome of this test for OCCNc1nc(Nc2ccccc2)nc2ccccc12 .
no

Identify the outcome logged in this assay for the molecule shown: Cc1ccc2c(c1)C1CN(C)CCC1N2C(=S)NC(=O)c1ccc(Br)cc1 (stereo unspecified)
no

Kindly provide the recorded test outcome for the following molecule: CCOCCCn1c(=S)[nH]c2cc(C(=O)NCCCN(CC)CC)ccc2c1=O
yes

Outcome? COc1ccc(NS(=O)(=O)c2csc(C(N)=O)c2)cc1OC
no

Hello, I am checking results. What call was entered for COc1cc(CNCCc2ccc(F)cc2)ccc1OCc1ccc(Cl)nc1 ?
no

* * *

target system: Short transient receptor potential channel 4 (Mus musculus) (UniProt Q9QUQ5)
Sequence (Q9QUQ5 whole entry, looked up): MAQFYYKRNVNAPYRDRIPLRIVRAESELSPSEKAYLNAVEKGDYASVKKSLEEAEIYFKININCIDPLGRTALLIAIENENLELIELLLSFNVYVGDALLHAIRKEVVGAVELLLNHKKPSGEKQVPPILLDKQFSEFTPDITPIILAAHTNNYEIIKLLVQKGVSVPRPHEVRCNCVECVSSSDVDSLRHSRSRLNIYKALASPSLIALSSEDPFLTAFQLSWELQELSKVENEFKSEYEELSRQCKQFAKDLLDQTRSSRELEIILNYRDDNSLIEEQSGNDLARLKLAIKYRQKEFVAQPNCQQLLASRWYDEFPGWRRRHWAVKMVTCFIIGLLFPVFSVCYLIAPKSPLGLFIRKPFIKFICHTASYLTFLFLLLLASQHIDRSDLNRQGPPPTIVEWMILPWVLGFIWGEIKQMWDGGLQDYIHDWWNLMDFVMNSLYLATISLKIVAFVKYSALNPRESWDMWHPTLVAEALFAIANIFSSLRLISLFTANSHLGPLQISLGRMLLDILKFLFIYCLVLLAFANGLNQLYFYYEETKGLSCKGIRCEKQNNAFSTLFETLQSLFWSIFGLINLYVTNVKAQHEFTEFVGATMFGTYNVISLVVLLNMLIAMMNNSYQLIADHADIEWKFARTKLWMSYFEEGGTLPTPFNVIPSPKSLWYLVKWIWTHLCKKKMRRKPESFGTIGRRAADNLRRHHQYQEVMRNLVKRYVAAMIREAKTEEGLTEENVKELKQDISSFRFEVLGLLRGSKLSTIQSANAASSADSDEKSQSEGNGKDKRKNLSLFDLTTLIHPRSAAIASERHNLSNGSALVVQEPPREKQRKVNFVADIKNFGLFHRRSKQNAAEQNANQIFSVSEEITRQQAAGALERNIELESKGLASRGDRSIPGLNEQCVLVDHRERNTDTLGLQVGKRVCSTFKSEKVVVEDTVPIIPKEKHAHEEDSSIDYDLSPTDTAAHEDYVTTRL
experiment: calcium flux activators in TRPC4/5HT1a cells, counter-screen for TRPC4 activator project, cell-based, second counter screen, HEK293 TRPC4/5HT1a, Fluo-4 (AID 434977)
test conditions: Fluo-4 calcium flux, at 10 µM; hits give high values
The source made the active and inactive calls.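 The calls were made as follows: active = calcium signal rise above buffer-control mean plus 5 SD in both duplicates, and also a hit in the primary screen; inactive = the rest.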
test readout: activation

[[record]]
compound = "O=[N+]([O-])c1c(Nc2cccc(O)c2)cc(Cl)c2nonc12"
value_reported = "inactive"

[[record]]
compound = "Fc1ccc(-n2cc(CNCCc3ccncc3)c(-c3ccccc3Cl)n2)cc1"
value_reported = "inactive"

[[record]]
compound = "CCN1CCCC(OC(=O)c2cc(-c3ccccc3Cl)nc3ccccc23)C1 (stereo unspecified)"
value_reported = "inactive"

[[record]]
compound = "Cc1cccc(NC(=O)c2cc([N+](=O)[O-])ccc2N2CCN(C)CC2)c1"
value_reported = "inactive"

[[record]]
compound = "CC(C)Cc1nc(N2CCN(C(=O)C(C)C)CC2)c(C#N)c2c1CCC2"
value_reported = "inactive"


Report activation for NC1=NC2(CCN(Cc3ccccc3)CC2)n2c(nc3ccccc32)N1 please.
inactive

May I ask what activation has been recorded for CC(NCCC(Cc1ccccc1)c1ccco1)c1ccccc1 (stereo unspecified) ?
inactive

# query: activation of entry O=C(c1ccccc1)c1coc2ccc(O)c(CN3CCOCC3)c12
inactive

* * *

System: transient receptor potential cation channel C4 beta (TRPC4), mouse
experiment: TRPC4 cation channel opening, second retest – cell-based, second round, Fluo4, HEK293 TRPC4beta/mu-opioid, 1 µM, confirmation (AID 2461)
test conditions: Fluo4 calcium fluorescence, at 1 µM
Calls of active or inactive are those of the source.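 How the source made its calls: active means primary screen active and over 50% activation in each of two duplicate runs; inactive means the rest.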
Your response should consist of one outcome taken from active, inactive

Test call, this compound: CCn1c(NCc2c[nH]c3ccccc23)nc2ccccc21
inactive

# fetch the recorded call for C=C(c1ccc(O)cc1)c1ccc(O)cc1 here
inactive

Record lookup: outcome of this test for COc1cccc(C(=O)OC2CCCN(C)C2)c1 (stereo not given) ?
active

* * *

Test system: TRPC4 beta (transient receptor potential cation channel C4), mouse
experiment: potentiation of DAMGO EC20 TRPC4 response – cell-based, Fluo-4, HEK293 TRPC4beta/mu-opioid, confirmation (AID 2555)
test conditions: DAMGO EC20, Fluo-4 calcium flux, at 10 µM; hits give high values
The source made the active and inactive calls.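 How the source made its calls: active means primary screen hit whose calcium fluorescence ratio, in both repeats, exceeds the weak agonist control mean by 3 SD; inactive means the rest.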
test readout: potentiation

Guide cases for potentiation, answers given:
[[record]]
compound = "COC(=O)NCC(c1ccc2c(c1)OCO2)N1CCN(c2ccc(OC)cc2)CC1 (stereo unspecified)"
value_reported = "inactive"

[[record]]
compound = "Cc1cccc(Cn2c(N3CCN(c4ccccc4)CC3)nc3c2c(=O)n(C)c(=O)n3C)c1"
value_reported = "71% (active)"

[[record]]
compound = "O=C(Nc1cccc(Cl)c1)c1cnn2cccnc12"
value_reported = "14% (active)"

[[record]]
compound = "CCN1CCN(c2ccc(NC(=O)CCc3c(C)nc4c(-c5ccc(F)cc5)c(C)nn4c3C)cc2)CC1"
value_reported = "inactive"

[[record]]
compound = "O=C(CN1CCCCCC1)N1c2ccccc2Sc2ccccc21"
value_reported = "inactive"

[[record]]
compound = "Cc1ccc(/C=C/C(=O)c2ccc(O)cc2)cc1"
value_reported = "inactive"

[[record]]
compound = "CCOC(=O)c1c(-c2ccc(OC)cc2)oc2ccc(O)cc12"
value_reported = "inactive"

[[record]]
compound = "COc1ccc(OC)c(Nc2cc(C)nc3ccc(C)cc23)c1"
value_reported = "inactive"

[[record]]
compound = "CN(C)CCCN(C(=O)c1ccc(S(=O)(=O)N2CCc3ccccc3C2)cc1)c1nc2ccc(F)cc2s1"
value_reported = "inactive"

[[record]]
compound = "CC(=O)c1c(C)nn(CC(=O)NC2CCCN(Cc3ccc(CC(C)C)cc3)C2)c1C (stereo unspecified)"
value_reported = "inactive"


Return reported potentiation; argument: Cc1csc2c(N3CCN(C(=O)Nc4ccc(Cl)c(Cl)c4)CC3)ncnc12
inactive

Look up potentiation: N#Cc1cccc2c1-c1ccccc1/C2=N/NC(N)=O
inactive

* * *

target system: Short transient receptor potential channel 4 (Mus musculus)
experiment: potentiation of DAMGO-evoked TRPC4 calcium signal – cell-based, HEK293 TRPC4/mu-opioid, Fluo-4 calcium, EC20 DAMGO, dose response (AID 434941);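 further: calcium entry triggered by an EC20 dose of DAMGO at the co-expressed mu-opioid receptor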
test conditions: HEK293 TRPC4/mu-opioid cells, Fluo-4 calcium fluorescence; series mostly up to 20 µM
Results with a measured potency or affinity are listed apart. Calls of active or inactive are those of the source.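 How the source made its calls: active means earlier screen potentiator hit that boosts the TRPC4 ion channel at some dose, with a dose response; inactive means no potentiation, no dose response, or not a prior hit.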
test readout: outcome

Here's what some known entries look like.
[[record]]
molecule = "COc1ccccc1N1CCc2c(C)nc3c(OC)cccc3c21"
test_readout = "outcome"
value_reported = "inactive"

[[record]]
molecule = "Cc1ccc(Nc2cc(C)nc3ccc(C)cc23)cc1"
test_readout = "outcome"
value_reported = "inactive"

[[record]]
molecule = "CCOc1ccccc1CN1CCN(Cc2cccc3nonc23)CC1CCO (centres undefined)"
test_readout = "outcome"
value_reported = "inactive"

[[record]]
molecule = "CC(/C=C1\\SC(=S)N(C(C(=O)O)C(C)C)C1=O)=C\\c1ccccc1 (centres undefined)"
test_readout = "outcome"
value_reported = "inactive"


For the molecule O=c1c(Cc2ccccc2)c(O)ccn1CCc1cnc[nH]1 , what outcome is on record?
inactive

State the recorded outcome for this entry: Cc1ccc(C(=O)NC(=S)Nc2c(C)ccc3nsnc23)cc1
inactive

* * *

Tested on: TRPC4 beta (transient receptor potential cation channel C4), mouse
experiment: TRPC4 cation channel opening, retest – cell-based, Fluo4 calcium, HEK293 TRPC4beta/mu-opioid, duplicates, 10 µM, confirmation (AID 2426)
test conditions: Fluo4 calcium fluorescence, at 10 µM
Active and inactive are the calls of the source.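 How the source made its calls: active means fluorescence ratio normalized to control raised more than 50% in primary screen plus both repeat runs; inactive means the rest.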
Response enum: active, inactive

[[record]]
molecule = "CCN1CCN(C(=O)c2cc(-c3ccc(Cl)s3)nc3ccccc23)CC1"
classification = "inactive"


Next molecule, please.
# outcome recorded in this test, key = NCCNC(=O)c1c(NC(=O)c2ccccc2)sc2c1CCCC2
active

* * *

experiment: serotonin-gated TRPC4 signal block – cell-based, second counter screen, HEK293 TRPC4/5HT1a, Fluo-4, counter-screen for TRPC4 inhibitor project, confirmation (AID 434978)
test conditions: Fluo-4 calcium flux, at 10 µM, serotonin added to trigger calcium flux
Active and inactive are the calls of the source.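 Rule for the calls: active = primary screen active whose calcium signal fell more than 3 SD beyond the full-serotonin control mean in both duplicate plates; inactive = the rest.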
Result category, one only: active, inactive

[[record]]
compound = "Cn1c(=O)cc(OCCCC(=O)NCCCN2CCN(Cc3ccccc3)CC2)c2ccccc21"
classification = "inactive"

[[record]]
compound = "CCc1cc(OCCN(C)C)ccc1Cl"
classification = "inactive"


Please state the recorded outcome for this compound: O=C(NCc1ccccc1)C1=C[C@H](c2ccc(Br)cc2)C[C@H](OCc2ccc(CO)cc2)O1
inactive

Can you look up the reported call for CCN(CC)CCN(Cc1cc2cc3c(cc2[nH]c1=O)OCCO3)C(=O)NC1CCCCC1 for me?
inactive

Check the results log: what was the call for Clc1ccc2nc(N3CCNCC3)nc(-c3ccccc3)c2c1 ?
inactive

Recorded test call requested for Cn1c(N2CCC(C(N)=O)CC2)nc2c1c(=O)n(Cc1ccc(Br)cc1)c(=O)n2C
inactive

Please indicate how the test categorized CCCN(CCC)CCCNC(=O)CNC(=O)c1nn(-c2ccc(OC)cc2)c(=O)c2ccccc12 .
inactive

Entry Cc1ccc(C)c2c(N)c3c(nc12)CCCCC3 (tested in a mixture with another compound) : call = ?
active

What is the recorded call for this compound in the test? O=C(NCc1ccccc1Cl)/C(=C\c1cccnc1)NC(=O)c1ccccc1
inactive

I would be grateful if you could indicate the recorded call for Cc1ncsc1CCOC(=O)c1cccc([N+](=O)[O-])c1 .
active
